assay.target: T1, FX activation peptide 12-mer TWKPYDAADLDP (human)
T1 peptide: TWKPYDAADLDP-biotin
assay.method.text: peptide ELISA
Ends that are not written are not given here.
Quick rule for you: ELISA signal relative to background under 1 gets met, anything else gets not met.

Nb 501A02 (VHH, monovalent control Nanobody; also called control Nanobody; not shown: C-terminal FLAG3 and HIS6 tag) VHH: EVQLVESGGGLVQPGGSLRLSCAASGFTFSNYEMSWVRQAPGKGLEWVSDIGSGGGVSTYYADSVKGRFTISRDNAKNTLYLQMNSLKPEDTAMYYCARGWTYGSDGMDYWGKGTLVTVSS :: met
Nb 729C08 (VHH, monovalent Nanobody; also called Nb 729008; not shown: C-terminal FLAG3 and HIS6 tag) VHH: EVQLVESGGGVVQPGGSLRLSCAASGFTFSDYAMSWVRQAPGKGLEWVSGITGGGRTYYADSVKGRFTISRDNSKNTLYLQMNSLRPEDTALYYCAAAILTRTRRTYDYWGQGTLVTVSS :: not met
Nb 730C03 (VHH, monovalent Nanobody; also called Nb 730003; not shown: C-terminal FLAG3 and HIS6 tag) VHH: EVQLVESGGGVVQPGGSLRLSCVASGFTFSDYAMSWVRQAPGKGLEWVSGITSGSGRTYYADSVKGRFTISRDNSKNTVYLQMNSLRPEDTALYYCAAAILRGYRKTYDYWGQGTLVTVSS :: not met
Nb 701B09 (VHH, monovalent Nanobody; also called Nb 701609; not shown: C-terminal FLAG3 and HIS6 tag) VHH: EVQLVESGGGVVQPGGSLRLSCAASGRTFSTYAMGWFRQAPGKEREFVAAISWSGSRTYYADSVKGRFTISRDNSKNTVYLQMNSLRPEDTALYYCAADATPANGELDYWGQGTLVTVSS :: met

Now examine the next entry.
State whether 1 exceeds ELISA signal relative to background recorded for Nb 701D07 (VHH, monovalent Nanobody; not shown: C-terminal FLAG3 and HIS6 tag) VHH: EVQLVESGGGVVQPGGSLRLSCAASGGTLSRYAMGWFRQAPGKEREFVAAITRRGSRTYYADSVKGRFTISRDNSKNTVYLQMNSLRPEDTALYYCAADLAPGDYALDYWGQGTLVTVSS . met
